# assayInfo: Half in dog liver microsomes
# Format: ADME, Canis lupus familiaris
parameter: half-life
Report the figure along with its unit, number first.

Q: Which half-life value belongs to `CCn1c(C(=O)N(C2CC2)C2CC2)cc2c3c(ncn3C)c(Nc3cc(C)n(C)n3)nc21` ?
Result: 1.17 h

====

# assayInfo: Half in mouse liver microsomes
# Format: ADME
parameter: half-life (h)
Write the number in h without appending the unit.

Q: Which half-life value belongs to `CCn1c(C(=O)N(C2CC2)C2CC2)cc2c3c(ncn3C)c(Nc3cc(C)n(C)n3)nc21` ?
Result: 1.8

====

# assayInfo: AUC (0 to 72 hrs) in rat
# Assay type: ADME, organism-based
# Set-up: time < 72 hr
# testConditions: in vivo
parameter: AUC(0-t) at 72 h (µM·h)
Write the number in µM·h without appending the unit.

Q: Which AUC(0-t) at 72 h value belongs to `CCn1c(C(=O)N(C2CC2)C2CC2)cc2c3c(ncn3C)c(Nc3cc(C)n(C)n3)nc21` ?
Result: 11300
